Origin of measurements: the emibetuzumab library of Makowski et al. (2022)

B1: VH:VL chains; a variant is named by its letters at X, in order (parent)
chain 1: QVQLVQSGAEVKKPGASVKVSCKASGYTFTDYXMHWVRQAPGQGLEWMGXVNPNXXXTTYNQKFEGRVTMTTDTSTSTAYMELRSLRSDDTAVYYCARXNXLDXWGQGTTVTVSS
chain 2: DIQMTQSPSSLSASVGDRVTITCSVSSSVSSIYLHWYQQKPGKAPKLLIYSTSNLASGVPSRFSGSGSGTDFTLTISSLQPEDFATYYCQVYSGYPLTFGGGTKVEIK

variants of: B1; experiment: yeast display scFab, FACS + sequencing
QUANTITY_NAME: non-specific binding call

Here is how some variants turned out for non-specific binding call.
YRRRGDGY ... binds
FRGRGFGV ... binds
YARADSSD ... no binding
ARGRSDAV ... no binding
SEARSSAD ... no binding
SRKEGAAY ... no binding
FKGRGSGV ... binds
DAGAADGA ... no binding
DREGDYLY ... no binding
VEAGDAGD ... no binding

Measured non-specific binding call of DARGGFGV : no binding

Measured non-specific binding call of YRGKSSAD : binds

Measured non-specific binding call of FAKAGFVA : binds
